target: T1, SARS-CoV-2 S1; assay: monoclonal phage ELISA, drawn table of OD450 values
T1 construct: also called S1 subunit of the SARS-CoV-2 spike protein
Each entry below carries its reported OD450.

Here are 7 binders together with their reported answers.
binder	OD450
NCI-CoV-8G12 (VHH) VHH: AVQLVDSGGGSVQAGGSLRLSCAASGYTSNMNHMGWFRQAPGKGLEWVSGIYSDGSTYYGDSVKGRFTISRDNAKNMLYLQMNNLKPEDTAVYYCSGDGGGIGYNYWGQGTQVTVSS	0.62
NCI-CoV-7C4 (VHH) VHH: EVQLVESGGGLVQPGGSLRLSCTASGFTFSSYDMSWVRQAPGKGLEWVSGINSGGNKIYYADSVKGRFTISRDNAKNTLYLQMSSLKSEDTALYYCAIGRLYSVKGQGTQVTVSS	0.52
NCI-CoV-7A3 (VHH) VHH: QVQLVESGGGSVQPGGSLRLSCVVSGYTSSSRYMGWFRQVPGKGLEWVSGIKRDGTNTYYADSVKGRFTISQDNAKNTVYLQMNSLKPEDTAMYYCAAGSWYNQWGYSMDYWGKGTQVTVSS	0.54
NCI-CoV-1H6 (VHH) VHH: AVQLVDSGGGSVQAGGSLNLSCVASGTTLRNGCMAWFRQVPGKEREVVAIIIRATSYTDYADSVKGRFTISQDNAKNTVYLQMKSLTPEDTATYYCAATLYRVNCAKREFDKWGQGTQVTVSS	0.82
NCI-CoV-8E1 (VHH) VHH: EVQLVESGGGSVQAGGSLRLSCAASGFTFSSYYMSWVRQAPGKGLEWVSGIYSDGSTYYGDSVKGRFTISRDNAKNTLYLQMNSLKSEDTALYYCAIGTGTTRQGQGTQVTVSS	0.51
NCI-CoV-1A10 (VHH) VHH: AVQLVDSGGGSVQAGGSLRLSCAASGFTGSNYCLGWFRQAPGKEREGVAVIERDTGGTTYPNSLEGRFTIAQDNAKNMVYLHMRNLQPEDTGTYTCAAARNGDSFGGFTFWGQGTQVTVSS	0.84
NCI-CoV-8B6 (VHH) VHH: AVQLVDSGGGSVQAGGSLRLSCAASGITYSTNCMGWFRQAPGKGLEWVSGINSDGRNTYYADSVKGRFTISQDNAKNTVYLQMNSLKPEDTAMYYCAAGSWYNQWGYSMDYWGQGTQVTVSS	0.88

From here, focus on the item given below.
Entry NCI-CoV-1G11 (VHH) VHH: QVQLVESGGGSVQAGGSLRLSCVASGDTNTRQYMGWFRQAPGKEREGVAVVHSDSGGTYYADSVKERFIIAQDNAKNTVYLTMNSLKVEDTAIYYCAAKTLEKPHFSVFSAASYDYWGQGTQVTVSS needs its OD450 filled in; supply it. 0.68
